Each entry below lists one item and its recorded T/C value.
# Tested on: BDF1 mice, L1210 leukemia sc, survival T/C
# protocol: NCI In Vivo Anticancer Drug Screen. Data for tumor model L1210 Leukemia (subcutaneous) in B6D2F1 (BDF1) mice
# test_parameters: endpoint: median survival time; dose: 7.8 mg/kg/injection; schedule: Q01DX Z (sc); vehicle: saline; higher = longer survival
Toxic doses and inconclusive results are not listed.

Some solved cases for reference:
C=CC(CN1CC1)OC(C)=O (centres undefined) | 150 % of control
C=CC(CO)N1CC1 (centres undefined) | 100 % of control
S=P(N1CCCCCC1)(N1CC1)N1CC1 | 111 % of control

Ask: Provide value of T/C for this record tested with BDF1 mice, L1210 leukemia sc, survival T/C: `O=C(CCN1CC1)OCCOC(=O)CCN1CC1`
Result: 100 % of control

###

Each entry below lists one item and its recorded T/C value.
# Test system: BDF1 mice, L1210 leukemia sc, survival T/C
# protocol: NCI In Vivo Anticancer Drug Screen. Data for tumor model L1210 Leukemia (subcutaneous) in B6D2F1 (BDF1) mice
# test_parameters: endpoint: median survival time; dose: 8.4 mg/kg/injection; schedule: Q01DX Z (sc); vehicle: water; higher = longer survival
Inconclusive results and toxic doses are left out.

Some solved cases for reference:
O=C(Nc1ccc(S(=O)(=O)O)cc1)c1ccc([N+](=O)[O-])cc1 | 155 % of control
O=C(Nc1ccc(NC2=NCCN2)cc1)c1ccc(C(=O)Nc2ccc(NC3=NCCN3)cc2)cc1 | 175 % of control
CCOC(=O)c1ccc(N)nc1 | 100 % of control
CN(C)Nc1ncnc2nc[nH]c12 | 100 % of control
CN(C)c1ccc(/C=C/c2ccnc3ccccc23)cc1 | 100 % of control

Ask: Provide value of T/C for this record tested with BDF1 mice, L1210 leukemia sc, survival T/C: `ClCCN(CCCl)CCNc1ccnc2cc(Cl)ccc12`
Result: 100 % of control

Ask: And `O=C(Nc1ccc(C2=NCCN2)cc1)c1ccc(C(=O)Nc2ccc(C3=NCCN3)cc2)c(Cl)c1` ?
Result: 170 % of control

Ask: And `CCNC(=O)c1cccnc1` ?
Result: 100 % of control

###

# Test system: BDF1 mice, L1210 leukemia sc, survival T/C
# protocol: NCI In Vivo Anticancer Drug Screen. Data for tumor model L1210 Leukemia (subcutaneous) in B6D2F1 (BDF1) mice
# test_parameters: endpoint: median survival time; dose: 39.0 mg/kg/injection; schedule: Q01DX Z (sc); vehicle: methylcellulose (MC); higher = longer survival
Inconclusive results and toxic doses are left out.
measure_name: T/C

Oc1cc(CN(CCCl)CCCl)c(O)cc1CN(CCCl)CCCl | 110 % of control
CS(=O)(=O)OCC(=O)NCCNC(=O)COS(C)(=O)=O | 105 % of control

Ask: Please look up its T/C: `CC(C)CSc1nc(N)nc2nc[nH]c12`
Result: 111 % of control
